test system: human fibroblasts (HAF); assay: SRB cytotoxicity assay, human fibroblasts HAF; type: cell-based; conditions: Fibroblast, 96 h, read-out: IC50 HAF
pIC50: −log10 of the molar value.
measured attribute: pIC50

compound	pIC50
C[C@]1([N+](=O)[O-])C(=O)c2cc(F)ccc2O[C@@H]1CC(=O)NC12CC3CC(CC(C3)C1)C2	< 4.00
C[C@]1([N+](=O)[O-])C(=O)c2ccccc2O[C@@H]1CC(N)=O	< 4.00
C[C@]1([N+](=O)[O-])C(=O)c2ccccc2O[C@@H]1CC(=O)Nc1ccccc1	< 4.00

response.value for `CC[C@]1([N+](=O)[O-])C(=O)c2ccccc2O[C@@H]1CC(=O)NC12CC3CC(CC(C3)C1)C2` (field: pIC50) = < 4.00

pIC50 in this record for CC(=O)O[C@@]12CO[C@@H]1C[C@H](O)[C@@]1(C)C(=O)[C@H](O)C3=C(C)[C@@H](OC(=O)[C@H](O)[C@@H](NC(=O)OC(C)(C)C)c4ccccc4)C[C@@](O)([C@@H](OC(=O)c4ccccc4)[C@H]21)C3(C)C [Docetaxel, reference compound] : 6.80

Record summary for `CC(C)(C)NC(=O)C[C@H]1Oc2ccccc2C(=O)[C@]1(C)[N+](=O)[O-]` : reported pIC50 = < 4.00

* * *

system: 22RV1 cells; experiment: SRB antiproliferative assay, 22RV1; type: cell-based; details: Homo sapiens, 22Rv1, read-out: IC50 22RV1
measured attribute: IC50 (µM)
Express it in µM; write the number only.

Tested system 22RV1 cells; IC50 recorded for `C[C@]1([N+](=O)[O-])C(=O)c2cc(F)ccc2O[C@@H]1CC(=O)NC12CC3CC(CC(C3)C1)C2` was 7.43
